biological target: Gal(a1-3)Gal(b1-4)[Fuc(a1-3)]GlcNAc(b1-2)Man(a1-3)[Gal(a1-3)Gal(b1-4)[Fuc(a1-3)]GlcNAc(b1-2)Man(a1-6)]Man(b1-4)GlcNAc(b1-4)GlcNAc; test: glycan array binding signal (z-score within array); higher = stronger binding; details: glycan notation: IUPAC condensed, linker removed
Many of the other results were omitted from the sample, so the strongest signals are more common in it than they were.
Reported glycan array binding signal (z-score) by item:
PROPERTY NAME: glycan array binding signal (z-score)

[
  {
    "BINDER": "SP15308C-bot-338-23-338 (Bacteroides ovatus) (protein) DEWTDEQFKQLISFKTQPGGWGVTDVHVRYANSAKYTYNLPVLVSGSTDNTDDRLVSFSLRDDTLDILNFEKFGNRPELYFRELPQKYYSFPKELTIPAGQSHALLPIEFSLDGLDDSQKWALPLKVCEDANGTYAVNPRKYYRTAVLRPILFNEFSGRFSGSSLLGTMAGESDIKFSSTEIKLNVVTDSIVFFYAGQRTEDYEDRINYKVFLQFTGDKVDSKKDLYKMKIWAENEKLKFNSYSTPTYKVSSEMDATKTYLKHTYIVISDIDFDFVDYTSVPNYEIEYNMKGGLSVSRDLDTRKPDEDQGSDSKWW",
    "MEASURED RESULT": 1.61
  },
  {
    "BINDER": "Erv41-EDTA (Saccharomyces cerevisiae), Q04651 (protein) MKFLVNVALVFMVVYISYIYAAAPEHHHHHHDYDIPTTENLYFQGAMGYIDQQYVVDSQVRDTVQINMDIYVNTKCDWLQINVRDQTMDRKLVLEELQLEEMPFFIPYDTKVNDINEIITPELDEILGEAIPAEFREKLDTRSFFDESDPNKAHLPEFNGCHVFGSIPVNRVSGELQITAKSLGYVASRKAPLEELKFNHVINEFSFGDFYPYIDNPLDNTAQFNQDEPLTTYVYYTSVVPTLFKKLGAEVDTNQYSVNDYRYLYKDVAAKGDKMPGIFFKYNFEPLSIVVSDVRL",
    "MEASURED RESULT": 2.1
  }
]
